- Test system: RPMI-8226 leukemia
- experimental-protocol: NCI-60 one-dose screen, 48 h
- condition-parameters: 10 µM unless noted
Compounds without any hit were thinned out: in the full panel of roughly 83,000, 20% have a hit. Active and inactive are the calls of the source. How the source made its calls: active means growth percent below 10; inactive means the rest.
One label from this list, please: active, inactive

Ask | Tell me the assay call for O=C(Nc1ccc2c(c1)-c1ccccc1C2)C1CC(=O)N(c2ccc3c(c2)OCO3)C1 (stereo not given) please.
Reply | inactive

Ask | Tell me the assay call for CO[C@]12C=C/C(=C(/C(=O)OCc3cccnc3)C(=O)CCCCCCCC[C@]3(OC)C=C/C(=C(/C(=O)OCc4cccnc4)C(=O)CCCCCCCC1)O3)O2 please.
Reply | active

// data source = PubChem BioAssay (NCI)
